Target: T1, human IL-12Rβ2 expressed on cells (human, UniProt Q99665 24-862)
T1 sequence: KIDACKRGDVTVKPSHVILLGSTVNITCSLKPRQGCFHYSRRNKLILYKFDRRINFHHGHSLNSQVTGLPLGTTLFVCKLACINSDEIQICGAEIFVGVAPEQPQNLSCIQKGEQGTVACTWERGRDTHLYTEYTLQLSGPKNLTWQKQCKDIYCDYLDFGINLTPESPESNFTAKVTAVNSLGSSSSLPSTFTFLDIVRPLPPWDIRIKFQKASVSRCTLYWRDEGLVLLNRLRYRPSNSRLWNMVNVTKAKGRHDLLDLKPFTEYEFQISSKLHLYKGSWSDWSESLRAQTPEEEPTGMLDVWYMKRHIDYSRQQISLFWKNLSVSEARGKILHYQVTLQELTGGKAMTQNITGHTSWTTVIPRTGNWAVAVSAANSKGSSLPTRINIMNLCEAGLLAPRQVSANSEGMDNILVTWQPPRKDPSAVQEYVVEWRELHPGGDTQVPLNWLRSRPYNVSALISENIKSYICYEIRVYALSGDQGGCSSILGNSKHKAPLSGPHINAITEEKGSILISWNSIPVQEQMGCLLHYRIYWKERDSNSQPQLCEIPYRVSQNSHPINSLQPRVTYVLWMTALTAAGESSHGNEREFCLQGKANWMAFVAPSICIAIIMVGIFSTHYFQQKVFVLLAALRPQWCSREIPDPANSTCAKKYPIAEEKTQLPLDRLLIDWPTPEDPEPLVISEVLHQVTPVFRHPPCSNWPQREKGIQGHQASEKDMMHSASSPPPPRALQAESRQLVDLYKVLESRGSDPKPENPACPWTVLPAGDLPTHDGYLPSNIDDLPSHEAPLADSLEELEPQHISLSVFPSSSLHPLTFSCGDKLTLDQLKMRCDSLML
Assay: cell-based or functional assay
assay-endpoint: % Specific Cell Lysis at 10 ug/mL
Please answer using a numeric value trailed by its unit.

anti-IL-12Rβ2-VHH-FcDE clone 21053 (Fc fusion) QVQLQESGGGLVQAGGSLRLSCAASGRTFSNYAMAWFRQAPGTEREFVAGLSGSGGDTEFYDDSVKGRFAISRDSAKNTVWLQMNSLKPEDTAVYYCAAATHVVVHYGLVRRRGTYDYWGQGTQVTVSSAPELLGGPDVFLFPPKPKDTLMISRTPEVTCVVVDVSHEDPEVKFNWYVDGVEVHNAKTKPREEQYNSTYRVVSVLTVLHQDWLNGKEYKCKVSNKALPAPEEKTISKAKGQPREPQVYTLPPSRDELTKNQVSLTCLVKGFYPSDIAVEWESNGQPENNYKTTPPVLDSDGSFFLYSKLTVDKSRWQQGNVFSCSVMHEALHNHYTQKSLSLSPGK :: 73.3%

Any idea what % Specific Cell Lysis at 10 ug/mL was measured for 20373-FcDE (Fc fusion) VHH-Fc chain: QVQLQESGGGLVQAGGSLVLSCAASGSAALIFLMSWYRQAPGKQRELVAEVSRGGSTTYADSVEGRFTISRDNAKNIVDLQMNSLKPEDTAVYYCKADQNYGDSLRSSWGQGTQVTVSSAPELLGGPDVFLFPPKPKDTLMISRTPEVTCVVVDVSHEDPEVKFNWYVDGVEVHNAKTKPREEQYNSTYRVVSVLTVLHQDWLNGKEYKCKVSNKALPAPEEKTISKAKGQPREPQVYTLPPSRDELTKNQVSLTCLVKGFYPSDIAVEWESNGQPENNYKTTPPVLDSDGSFFLYSKLTVDKSRWQQGNVFSCSVMHEALHNHYTQKSLSLSPGK ?
70.7%

The reported numbers originate from patent US20260209362A1.
